# tgt: GST-Co-NF-kB (Capsaspora owczarzaki, UniProt F1ARL5 200-546)
# Sequence: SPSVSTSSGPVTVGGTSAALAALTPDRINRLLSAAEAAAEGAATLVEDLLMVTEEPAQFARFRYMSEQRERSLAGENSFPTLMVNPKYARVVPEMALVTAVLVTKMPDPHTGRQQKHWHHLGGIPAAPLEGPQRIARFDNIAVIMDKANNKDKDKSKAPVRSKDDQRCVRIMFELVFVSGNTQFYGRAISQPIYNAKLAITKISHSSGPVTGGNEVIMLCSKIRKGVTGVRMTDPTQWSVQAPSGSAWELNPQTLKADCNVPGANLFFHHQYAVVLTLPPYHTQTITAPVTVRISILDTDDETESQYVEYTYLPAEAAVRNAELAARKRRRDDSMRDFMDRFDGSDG
# test: protein-binding microarray (PBM); PBM: ~300 nM protein, 6 mM HEPES pH 7.8, 80 mM KCl, 0.5 mM EDTA, 0.5 mM EGTA, 6% glycerol, 35 ng/ul poly-dIdC, 1% milk, 1 h, room temperature; Ap Aiptasia and Nv Nematostella (sea anemones) / Co Capsaspora / Aq Amphimedon (sponge) / Dm Drosophila / Hu human; RHD is the Rel homology domain; high values mean tight binding
# assayConditions: dsDNA, one strand shown
propertyLabel: binding signal

[[record]]
constructsequence = "CCGATTAACATCAGGGGAAAAGATGATGTTAATCGGGTCTTGATTCGCTTGACGCTGCTG"
observed = "7.74 z-score"

[[record]]
constructsequence = "CCGATTAACATCAGGGGAGTTCATGATGTTAATCGGGTCTTGATTCGCTTGACGCTGCTG"
observed = "3.54 z-score"

[[record]]
constructsequence = "CCGATTAACATCACACATTCCCCTGATGTTAATCGGGTCTTGATTCGCTTGACGCTGCTG"
observed = "5.83 z-score"

[[record]]
constructsequence = "CCGATTAACATCAAAATTACCCATGATGTTAATCGGGTCTTGATTCGCTTGACGCTGCTG"
observed = "2.84 z-score"

[[record]]
constructsequence = "CCGATTAACATCAGGAGTTCCCATGATGTTAATCGGGTCTTGATTCGCTTGACGCTGCTG"
observed = "1.68 z-score"

[[record]]
constructsequence = "CCGATTAACATCAGGGGGAAAGATGATGTTAATCGGGTCTTGATTCGCTTGACGCTGCTG"
observed = "8.03 z-score"

[[record]]
constructsequence = "CCGATTAACATCAGGCGTTTCCCTGATGTTAATCGGGTCTTGATTCGCTTGACGCTGCTG"
observed = "1.83 z-score"

[[record]]
constructsequence = "CCGATTAACATCAAAACTTTCCCTGATGTTAATCGGGTCTTGATTCGCTTGACGCTGCTG"
observed = "6.16 z-score"

[[record]]
constructsequence = "CCGATTAACATCAGGGGGAAACCTGATGTTAATCGGGTCTTGATTCGCTTGACGCTGCTG"
observed = "9.35 z-score"

[[record]]
constructsequence = "CCGATTAACATCAGATTTCCCCCTGATGTTAATCGGGTCTTGATTCGCTTGACGCTGCTG"
observed = "11 z-score"

[[record]]
constructsequence = "CCGATTAACATCAAAAGCCCCCCTGATGTTAATCGGGTCTTGATTCGCTTGACGCTGCTG"
observed = "4.6 z-score"

[[record]]
constructsequence = "CCGATTAACATCAGAGTTTCCCATGATGTTAATCGGGTCTTGATTCGCTTGACGCTGCTG"
observed = "3.76 z-score"

[[record]]
constructsequence = "CCGATTAACATCATGTCGGGTGATGATGTTAATCGGGTCTTGATTCGCTTGACGCTGCTG"
observed = "1.26 z-score"

[[record]]
constructsequence = "CCGATTAACATCACGCCCCCCCCTGATGTTAATCGGGTCTTGATTCGCTTGACGCTGCTG"
observed = "3.87 z-score"

[[record]]
constructsequence = "CCGATTAACATCACGGGGAAATCTGATGTTAATCGGGTCTTGATTCGCTTGACGCTGCTG"
observed = "10.1 z-score"

[[record]]
constructsequence = "CCGATTAACATCAGGGGAATCACTGATGTTAATCGGGTCTTGATTCGCTTGACGCTGCTG"
observed = "6.78 z-score"

[[record]]
constructsequence = "CCGATTAACATCAAAATTCCCAATGATGTTAATCGGGTCTTGATTCGCTTGACGCTGCTG"
observed = "4.01 z-score"

[[record]]
constructsequence = "CCGATTAACATCAAAAAACCACCTGATGTTAATCGGGTCTTGATTCGCTTGACGCTGCTG"
observed = "1.37 z-score"

[[record]]
constructsequence = "CCGATTAACATCAGAAATGTCCCTGATGTTAATCGGGTCTTGATTCGCTTGACGCTGCTG"
observed = "1.29 z-score"

[[record]]
constructsequence = "CCGATTAACATCAAACAAACCCCTGATGTTAATCGGGTCTTGATTCGCTTGACGCTGCTG"
observed = "1.74 z-score"

[[record]]
constructsequence = "CCGATTAACATCAAGGGGGGGGATGATGTTAATCGGGTCTTGATTCGCTTGACGCTGCTG"
observed = "7.64 z-score"

[[record]]
constructsequence = "CCGATTAACATCAAAATTTCCCATGATGTTAATCGGGTCTTGATTCGCTTGACGCTGCTG"
observed = "5.2 z-score"

[[record]]
constructsequence = "CCGATTAACATCACATTTTCCCATGATGTTAATCGGGTCTTGATTCGCTTGACGCTGCTG"
observed = "3.98 z-score"

[[record]]
constructsequence = "CCGATTAACATCAAATTTCCCAGTGATGTTAATCGGGTCTTGATTCGCTTGACGCTGCTG"
observed = "4.39 z-score"

[[record]]
constructsequence = "CCGATTAACATCAAGAAGTTCCCTGATGTTAATCGGGTCTTGATTCGCTTGACGCTGCTG"
observed = "2.42 z-score"

[[record]]
constructsequence = "CCGATTAACATCAAGGGGGATACTGATGTTAATCGGGTCTTGATTCGCTTGACGCTGCTG"
observed = "4.72 z-score"

[[record]]
constructsequence = "CCGATTAACATCAAACTCCCCCTTGATGTTAATCGGGTCTTGATTCGCTTGACGCTGCTG"
observed = "6.26 z-score"

[[record]]
constructsequence = "CCGATTAACATCAGGAAACCCCCTGATGTTAATCGGGTCTTGATTCGCTTGACGCTGCTG"
observed = "3.13 z-score"

[[record]]
constructsequence = "CCGATTAACATCAGGGAAACTCATGATGTTAATCGGGTCTTGATTCGCTTGACGCTGCTG"
observed = "3.68 z-score"

[[record]]
constructsequence = "CCGATTAACATCAAGGGGAATTATGATGTTAATCGGGTCTTGATTCGCTTGACGCTGCTG"
observed = "6.37 z-score"

[[record]]
constructsequence = "CCGATTAACATCAGGGAATGCACTGATGTTAATCGGGTCTTGATTCGCTTGACGCTGCTG"
observed = "1.11 z-score"

[[record]]
constructsequence = "CCGATTAACATCAGGGAAATAACTGATGTTAATCGGGTCTTGATTCGCTTGACGCTGCTG"
observed = "3.96 z-score"

[[record]]
constructsequence = "CCGATTAACATCAATATAGTCCCTGATGTTAATCGGGTCTTGATTCGCTTGACGCTGCTG"
observed = "1.15 z-score"

[[record]]
constructsequence = "CCGATTAACATCAACTATCCCGCTGATGTTAATCGGGTCTTGATTCGCTTGACGCTGCTG"
observed = "1.37 z-score"

[[record]]
constructsequence = "CCGATTAACATCAGGGGCAACCCTGATGTTAATCGGGTCTTGATTCGCTTGACGCTGCTG"
observed = "2.31 z-score"

[[record]]
constructsequence = "CCGATTAACATCAAAGTATCCCCTGATGTTAATCGGGTCTTGATTCGCTTGACGCTGCTG"
observed = "5.48 z-score"

